tested on: HCV pseudoparticles (genotype 1a HCV E1 and E2 envelope, H77C isolate); assay: microbe, parasite or virus in culture; format: cell-based; conditions: Hepatitis C virus, Huh-7, 48 h, class symbol; HCV pseudoparticles genotype 1a (H77C), Huh7 cells, luciferase 2 days after infection, average of duplicates
pEC50: −log10 of the molar value.
Property: pEC50; scope: individual molecules
measurement type: pEC50

molecule	measured value
COC(=O)N1CCCOc2ccc(cc2)CNc2nc(nc(OCC(F)(F)F)n2)Nc2ccc(C(=O)NCC3(CN4CCCC4)CC3)c(c2)OCCC1 [Example 3004]	7.00 to 10.00
COc1nc2nc(n1)OCc1cccc(c1)Nc1nc(nc(OCC(F)(F)F)n1)NCCN2 [Example 1002]	4.30 to 6.00
O=C1NCCCCCCNc2nc(nc(OCC(F)(F)F)n2)Nc2cccc1c2 [Example 1001]	4.30 to 6.00
COC(=O)[C@@H](CNC(=O)OC(C)(C)C)NC(=O)c1ccc2cc1OCCCCCCOc1ccc(cc1)CNc1nc(nc(OCC(F)(F)F)n1)N2 [Example 1309]	6.00 to 7.00
O=C1NCCNc2nc(nc(OCC(F)(F)F)n2)Nc2cccc(c2)CNC(=O)OCCO1 [Example 1014]	4.30 to 6.00
CC(C)C(=O)N1CCCCOc2cc(ccc2C(=O)NCC2(CN3CCCC3)CC2)Nc2nc(nc(OCC(F)(F)F)n2)NCc2ccc(cc2)OCCC1 [Example 3023]	7.00 to 10.00
O=C(NC(Cc1ccccc1)C(=O)O)c1ccc2cc1OCCCCCCOc1ccc(cc1)CNc1nc(nc(OCC(F)(F)F)n1)N2 (stereo not shown) [Example 1405]	7.00 to 10.00

----------
tested on: HCV pseudoparticles (genotype 1a HCV E1 and E2 envelope, H77C isolate); assay: microbe, parasite or virus in culture; assay type: cell-based; conditions: Hepatitis C virus, Huh-7, 48 h, class symbol; HCV pseudoparticles genotype 1a (H77C), Huh7 cells, luciferase 2 days after infection, average of duplicates
pEC50: −log10 of the molar value.
measurement type: pEC50

molecule	measured value
COC(=O)CCCNC(=O)c1ccc2cc1OCCCCCCCCOc1ccc(cc1)CNc1nc(nc(OCC(F)(F)F)n1)N2 [Example 1101]	7.00 to 10.00
CC(C)(C)OC(=O)N1CCC(CNC(=O)c2ccc3cc2OCCCCCCCCOc2ccc(cc2)CNc2nc(nc(OCC(F)(F)F)n2)N3)C1 (stereo not drawn) [Example 1105]	7.00 to 10.00
COC(=O)C(NC(=O)c1ccc2cc1OCCCCCCOc1ccc(cc1)CNc1nc(nc(OCC(F)(F)F)n1)N2)C1CCCN(C(=O)OC(C)(C)C)C1 (stereo not drawn) [Example 1304]	7.00 to 10.00
CN(C)CC(C)(C)CNC(=O)c1ccc2cc1OCCCCCCOc1cccc(c1)CNc1nc(nc(OCC(F)(F)F)n1)N2 [Example 1804]	6.00 to 7.00
CC(C)(C)OC(=O)NC1(C(=O)O)CCN(C(=O)c2ccc3cc2OCCCCCCCCOc2ccc(cc2)CNc2nc(nc(OCC(F)(F)F)n2)N3)C1 (stereo not drawn) [Example 1018]	4.30 to 6.00
CC(C)(C)OC(=O)N1CCCOc2ccc(cc2)CNc2nc(nc(OCC(F)(F)F)n2)Nc2ccc(C(=O)O)c(c2)OCCC1 [Example 3002]	7.00 to 10.00
C=C1COc2ccc(cc2)CNc2nc(nc(OCC(F)(F)F)n2)Nc2ccc(C(=O)NCC3(CN4CCCC4)CC3)c(c2)OC1 [Example 1006]	4.30 to 6.00
CC(C)OC(=O)N1CCCCOc2cc(ccc2C(=O)NCC2(CN3CCCC3)CC2)Nc2nc(nc(OCC(F)(F)F)n2)NCc2ccc(cc2)OCCC1 [Example 3021]	7.00 to 10.00
CC[C@@H](C)[C@H](NC(=O)c1ccc2cc1OCCCCCCOc1ccc(cc1)CNc1nc(nc(OCC(F)(F)F)n1)N2)C(=O)O [Example 1404]	7.00 to 10.00
COC(=O)[C@H](CNC(=O)OC(C)(C)C)NC(=O)c1ccc2cc1OCCOCCOCCOc1ccc(cc1)CNc1nc(nc(OCC(F)(F)F)n1)N2 [Example 1604]	7.00 to 10.00
O=C(O)CNC(=O)c1ccc2cc1OCCCCCCCCOc1ccc(cc1)CNc1nc(nc(OCC(F)(F)F)n1)N2 [Example 1131]	6.00 to 7.00
CC(C)(C)OC(=O)N1CCCC(C(NC(=O)c2ccc3cc2OCCCCCCOc2ccc(cc2)CNc2nc(nc(OCC(F)(F)F)n2)N3)C(=O)O)C1 (stereo not drawn) [Example 1551]	7.00 to 10.00
CN(C)CC(C)(C)CNC(=O)c1ccc2cc1OCCCCCCOc1ccccc1CNc1nc(nc(OCC(F)(F)F)n1)N2 [Example 1806]	6.00 to 7.00
COC(=O)c1ccc2cc1OCCCN(C(=O)OC(C)(C)C)CCCOc1ccc(cc1)CNc1nc(nc(OCC(F)(F)F)n1)N2 [Example 3001]	7.00 to 10.00
O=C(O)CCCCNC(=O)c1ccc2cc1OCCCCCCOc1ccc(cc1)CNc1nc(nc(OCC(F)(F)F)n1)N2 [Example 1408]	7.00 to 10.00

----------
system: HCV pseudoparticles (genotype 1a HCV E1 and E2 envelope, H77C isolate); assay: microbe, parasite or virus in culture; format: cell-based; settings: Hepatitis C virus, Huh-7, 48 h, class symbol; HCV pseudoparticles genotype 1a (H77C), Huh7 cells, luciferase 2 days after infection, average of duplicates
pEC50: −log10 of the molar value.
measurement type: pEC50

compound	measured value
CNC(=O)NC[C@H](NC(=O)c1ccc2cc1OCCCCCCOc1ccc(cc1)CNc1nc(nc(OCC(F)(F)F)n1)N2)C(=O)O [Example 1707]	7.00 to 10.00
CC(C)(C)OC(=O)N1CCC2(CCN(C(=O)c3ccc4cc3OCCCCCCCCOc3ccc(cc3)CNc3nc(nc(OCC(F)(F)F)n3)N4)C2)C1 (stereo not shown) [Example 1109]	6.00 to 7.00
O=C(O)CC1CCN(C(=O)c2ccc3cc2OCCCCCCCCOc2ccc(cc2)CNc2nc(nc(OCC(F)(F)F)n2)N3)C1 (stereo not shown) [Example 1132]	4.30 to 6.00
O=C(NCC1(CN2CCCC2)CC1)c1ccc2cc1OCC=CCOc1ccc(cc1)CNc1nc(nc(OCC(F)(F)F)n1)N2 [Example 2006]	7.00 to 10.00
CN(C)CC(C)(C)CNC(=O)c1ccc2cc1OCCCCOc1cccc(c1)CNc1nc(nc(OCC(F)(F)F)n1)N2 [Example 1802]	7.00 to 10.00
CN(C)CC(C)(C)CNC(=O)c1ccc2cc1OCCCCCCOCC(c1ccccc1)Nc1nc(nc(OCC(F)(F)F)n1)N2 (stereo not shown) [Example 1807]	4.30 to 6.00
COC(=O)c1ccc2cc1OCCOCCOCCOc1ccc(cc1)CNc1nc(nc(OCC(F)(F)F)n1)N2 [Example 1007]	4.30 to 6.00
COC(=O)CC1CCN(C(=O)c2ccc3cc2OCCCCCCCCOc2ccc(cc2)CNc2nc(nc(OCC(F)(F)F)n2)N3)C1 (stereo not shown) [Example 1103]	4.30 to 6.00
CC(C)(C)OC(=O)N1CCC(CNC(=O)c2ccc3cc2OCCCCCCOc2ccc(cc2)CNc2nc(nc(OCC(F)(F)F)n2)N3)(C(=O)O)CC1 [Example 1557]	6.00 to 7.00
CC(=O)NC[C@H](NC(=O)c1ccc2cc1OCCCCCCOc1ccc(cc1)CNc1nc(nc(OCC(F)(F)F)n1)N2)C(=O)O [Example 1711]	7.00 to 10.00
COC(=O)[C@H](CCN)NC(=O)c1ccc2cc1OCCCCCCOc1ccc(cc1)CNc1nc(nc(OCC(F)(F)F)n1)N2 [Example 1502]	7.00 to 10.00
COC(=O)CNC(=O)c1ccc2cc1OCCCCCCCCOc1ccc(cc1)CNc1nc(nc(OCC(F)(F)F)n1)N2 [Example 1104]	6.00 to 7.00
CC(C)(C)OC(=O)NC[C@H](NC(=O)c1ccc2cc1OCCCCCCOc1ccc(cc1)CNc1nc(nc(OCC(F)(F)F)n1)N2)C(=O)O [Example 1560]	7.00 to 10.00
N=C(N)NCCC[C@@H](NC(=O)c1ccc2cc1OCCOCCOCCOc1ccc(cc1)CNc1nc(nc(OCC(F)(F)F)n1)N2)C(=O)O [Example 1603]	7.00 to 10.00
CC(C)(C)OC(=O)N[C@@H](CCNC(=O)c1ccc2cc1OCCCCCCOc1ccc(cc1)CNc1nc(nc(OCC(F)(F)F)n1)N2)C(=O)O [Example 1411]	7.00 to 10.00
CN(C)CC(C)(C)CNC(=O)c1ccc2cc1OCCCC(O)C(O)CCCOc1ccc(cc1)CNc1nc(nc(OCC(F)(F)F)n1)N2 (stereo not shown) [Example 1022]	7.00 to 10.00
CC(C)(C)OC(=O)N1C[C@H](C(=O)O)[C@H](NC(=O)c2ccc3cc2OCCCCCCOc2ccc(cc2)CNc2nc(nc(OCC(F)(F)F)n2)N3)C1 [Example 1558]	7.00 to 10.00
CC(C)(C)OC(=O)N1CCCC1CNC(=O)c1ccc2cc1OCCCCCCOc1ccc(cc1)CNc1nc(nc(OCC(F)(F)F)n1)N2 (stereo not shown) [Example 1306]	7.00 to 10.00
CCOC(=O)N1CCCOc2ccc(cc2)CNc2nc(nc(OCC(F)(F)F)n2)Nc2ccc(C(=O)NCC3(CN4CCCC4)CC3)c(c2)OCCC1 [Example 3005]	7.00 to 10.00
COC(=O)C(NC(=O)c1ccc2cc1OCCCCCCCCOc1ccc(cc1)CNc1nc(nc(OCC(F)(F)F)n1)N2)C1CCCN(C(=O)OC(C)(C)C)C1 (stereo not shown) [Example 1106]	7.00 to 10.00
COC(=O)[C@H](CNC(C)=O)NC(=O)c1ccc2cc1OCCCCCCOc1ccc(cc1)CNc1nc(nc(OCC(F)(F)F)n1)N2 [Example 1701]	7.00 to 10.00
CC(C)(C)OC(=O)N1CCCCOc2cc(ccc2C(=O)NCC2(CN3CCCC3)CC2)Nc2nc(nc(OCC(F)(F)F)n2)NCc2ccc(cc2)OCCC1 [Example 3016]	7.00 to 10.00
COC(=O)[C@H](CCNC(=O)OC(C)(C)C)NC(=O)c1ccc2cc1OCCCCCCOc1ccc(cc1)CNc1nc(nc(OCC(F)(F)F)n1)N2 [Example 1307]	7.00 to 10.00
CC(C)(C)OC(=O)N[C@H](CCNC(=O)c1ccc2cc1OCCCCCCOc1ccc(cc1)CNc1nc(nc(OCC(F)(F)F)n1)N2)C(=O)O [Example 1412]	7.00 to 10.00
CC(C)(C)OC(=O)N1CCCC(C(NC(=O)c2ccc3cc2OCCOCCOCCOc2ccc(cc2)CNc2nc(nc(OCC(F)(F)F)n2)N3)C(=O)O)C1 (stereo not shown) [Example 1605]	7.00 to 10.00
